# system: Virion infectivity factor (Human immunodeficiency virus type 1 group M subtype B (isolate BH10)) + Virion infectivity factor (Human immunodeficiency virus type 1 group M subtype B (isolate BRU/LAI)) + Virion infectivity factor (Human immunodeficiency virus type 1 group M subtype B (isolate PCV12)) + Virion infectivity factor (Human immunodeficiency virus type 1 group M subtype B (isolate HXB2)) + DNA dC->dU-editing enzyme APOBEC-3G (Homo sapiens) (UniProt P69720+P69721+P69722+P69723+Q9HC16)
# protocol_notes: inhibitors of Vif binding to APOBEC3G peptide, primary screen, biochemical, TR-FRET, GST-Vif 1-94, biotin-A3G peptide, dose response retest (AID 1117319);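 further: Vif residues 1-94 fused to GST binding biotinylated APOBEC3G peptide 110-148; 0% = full assay without inhibitor and 100% = GST in place of GST-Vif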
# experimental_context: hits give high values
The campaign covered roughly 260,000 compounds. About 1,500 (0.58%) were called active. Another 5% or so got no clear call; they are omitted. The list is a sample of the results. Results with a measured potency or affinity are listed apart.
observable: inhibition (%)
Quick reminder: number only, in %, skip the unit.

Known inhibition results, listed for orientation:
OC(COCc1ccccc1)CN1CCCC1 (stereo unspecified) ... 1.73
CCC(C)[C@@H](C(=O)Nc1ccc(OC)c(OC)c1)N1Cc2ccccc2C1=O (stereo partly specified) ... 3.88
Oc1c(CN2CCOCC2)ccc(CN2CCOCC2)c1O ... 30.9
CCOC(=O)c1c(C)[nH]c(C(=O)Cn2c(=O)oc3ccccc32)c1C ... -6.81
CCOC(=O)Cc1cc(=O)n2[nH]c(C(C)(C)C)cc2n1 ... 2.01

## Task Looking for the measured inhibition of `C(C#CCN1CCOCC1)#CCN1CCOCC1` , can you help?
## Result 5.57

## Task // repeat for `CC(=O)c1ccc(OC(=O)CCN2c3ccccc3Sc3ccccc32)cc1` and report
## Result 3.97
